Target: PDE1B (Homo sapiens, UniProt Q01064)
Construct: purchased Reaction Biology Corporation, Malvern, Pa
Sequence (Q01064 whole entry): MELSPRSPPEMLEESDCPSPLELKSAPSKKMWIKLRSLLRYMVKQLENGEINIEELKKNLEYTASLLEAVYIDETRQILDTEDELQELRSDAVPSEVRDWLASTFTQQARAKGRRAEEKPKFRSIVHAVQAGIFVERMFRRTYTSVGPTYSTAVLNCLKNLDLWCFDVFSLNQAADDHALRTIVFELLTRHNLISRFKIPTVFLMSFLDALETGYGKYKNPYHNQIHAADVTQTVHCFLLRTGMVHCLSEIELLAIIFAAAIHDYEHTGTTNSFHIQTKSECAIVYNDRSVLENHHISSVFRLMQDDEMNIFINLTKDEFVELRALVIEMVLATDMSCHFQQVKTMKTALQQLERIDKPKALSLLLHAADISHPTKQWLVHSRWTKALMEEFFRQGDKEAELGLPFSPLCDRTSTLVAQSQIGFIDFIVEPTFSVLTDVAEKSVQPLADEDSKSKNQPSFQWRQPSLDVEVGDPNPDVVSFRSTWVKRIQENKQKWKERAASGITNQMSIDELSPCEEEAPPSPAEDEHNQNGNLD
Assay: Phosphodiesterase enzyme screening assay, PDE1B
Format: biochemical
Conditions: ratio of IC50 values PDE1B vs PDE9A2; value greater than 1 indicates greater selectivity for PDE9A2
parameter: PDE1B selectivity (versus PDE9A2)
Could you respond with only the numeric value?

Answered cases to consult:
• Cc1cc(F)ccc1-c1ncc2c(=O)[nH]c(C3CN(Cc4cnccn4)CC3C)nn12 (single isomer, unassigned; (+)) = 393
• Cc1cc(F)ccc1-c1ncc2c(=O)[nH]c(C3CN(Cc4nc5ccccn5n4)CC3C)nn12 (single isomer, unassigned; (+)) = 473
• Cc1ccc(F)cc1-c1ncc2c(=O)[nH]c(C3CN(Cc4cn5ccccc5n4)CC3C)nn12 (single isomer, unassigned; (+)) = 1427

Field: next compound
Challenge: State the recorded PDE1B selectivity (versus PDE9A2) for this entry: CC1CN(Cc2cnccn2)CC1c1nn2c(C3CCC(F)(F)CC3)ncc2c(=O)[nH]1 (single isomer, unassigned; (+))
Response given: 575

---

Molecular target: PDE1B (Homo sapiens, UniProt Q01064)
Construct: purchased Reaction Biology Corporation, Malvern, Pa
Assay: Phosphodiesterase enzyme screening assay, PDE1B
Format: biochemical
Conditions: ratio of IC50 values, PDE1B versus PDE9A2; value greater than 1 indicates greater selectivity for PDE9A2
// reported PDE1B selectivity (versus PDE9A2) per item
Could you respond with only the numeric value?

* CC1CN(Cc2ncccn2)CC1c1nn2c(C3CCCC3)ncc2c(=O)[nH]1 (single isomer, unassigned; (+)) | 45
* CCC(CC)c1ncc2c(=O)[nH]c(C3CN(Cc4ccccc4)CC3C)nn12 (single isomer, unassigned; (+)) | 86
* Cc1cc(F)c(F)cc1-c1ncc2c(=O)[nH]c(C3CN(Cc4ccccc4)CC3C)nn12 (single isomer, unassigned; (+)) | 143
* CC1CN(Cc2ccccc2)CC1c1nn2c(-c3ccccc3)ncc2c(=O)[nH]1 (single isomer, unassigned; (+)) | 12
* Cc1cc(F)c(F)cc1-c1ncc2c(=O)[nH]c(C3CN(Cc4nc5ccccn5n4)CC3C)nn12 (single isomer, unassigned; (+)) | 2140
* Cc1ccncc1-c1ncc2c(=O)[nH]c(C3CN(Cc4ccccc4)CC3C)nn12 (single isomer, unassigned; (+)) | 379

Field: next compound
Challenge: State the recorded PDE1B selectivity (versus PDE9A2) for this entry: Cc1ccccc1-c1ncc2c(=O)[nH]c(C3CN(Cc4nc5ccccn5n4)CC3C)nn12 (single isomer, unassigned; (+))
Response given: 429

---

Target: PDE1A (Homo sapiens, UniProt P54750)
Construct: purchased Reaction Biology Corporation, Malvern, Pa
Sequence (P54750 whole entry): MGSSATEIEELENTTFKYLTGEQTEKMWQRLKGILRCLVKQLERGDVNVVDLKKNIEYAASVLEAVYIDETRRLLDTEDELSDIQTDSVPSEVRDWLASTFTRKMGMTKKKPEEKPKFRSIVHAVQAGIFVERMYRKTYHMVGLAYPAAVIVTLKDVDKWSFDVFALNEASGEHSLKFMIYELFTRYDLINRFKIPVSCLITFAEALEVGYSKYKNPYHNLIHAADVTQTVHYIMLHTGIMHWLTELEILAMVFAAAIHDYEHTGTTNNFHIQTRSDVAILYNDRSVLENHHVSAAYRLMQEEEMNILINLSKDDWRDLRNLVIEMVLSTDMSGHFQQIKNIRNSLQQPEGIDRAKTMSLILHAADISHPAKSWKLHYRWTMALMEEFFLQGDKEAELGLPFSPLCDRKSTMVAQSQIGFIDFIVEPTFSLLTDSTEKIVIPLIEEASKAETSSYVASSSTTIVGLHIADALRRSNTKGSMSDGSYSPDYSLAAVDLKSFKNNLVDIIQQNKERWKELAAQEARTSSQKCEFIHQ
Experiment: Phosphodiesterase enzyme screening assay, PDE1A
Format: biochemical
Conditions: ratio of IC50 values PDE1A / PDE9A2; value greater than 1 = greater selectivity for PDE9A2
From the text: Compounds of the invention were screened against PDE1A, PDE1B, PDE2A, PDE3A, PDE3B, PDE4A1A, PDE4B1, PDE4D3, PDE5A1, PDE6C, PDE7A, PDE8A1, PDE9A2, PDE10A2 AND PDE11A isoforms of the phosphodiesterase enzyme to determine activity and overall selectivity through comparative analysis. […] Where 8-methoxy-IBMX and Zaprinast were used as reference inhibitors. […]
// reported PDE1A selectivity (versus PDE9A2) per item

Answered cases to consult:
- Cc1ccnc(CN2CC(C)C(c3nn4c(C5CCOCC5)ncc4c(=O)[nH]3)C2)c1 (single isomer, unassigned; (+)): 143
- CC1CN(Cc2ccc(F)c(C#N)c2)CC1c1nn2c(C3CCOCC3)ncc2c(=O)[nH]1 (single isomer, unassigned; (+)): 61
- CC1CN(Cc2ccccc2OC(F)(F)F)CC1c1nn2c(C3CCOCC3)ncc2c(=O)[nH]1 (single isomer, unassigned; (+)): 173
- Cc1cc(CN2CC(C)C(c3nn4c(C5CCOCC5)ncc4c(=O)[nH]3)C2)ccn1 (single isomer, unassigned; (+)): 232
- COc1cncc(CN2CC(C)C(c3nn4c(C5CCOCC5)ncc4c(=O)[nH]3)C2)c1 (single isomer, unassigned; (+)): 1060
- CC1CN(Cc2ccc(F)c(Cl)c2)CC1c1nn2c(C3CCOCC3)ncc2c(=O)[nH]1 (single isomer, unassigned; (+)): 604
- CC1CN(Cc2ccc(Cl)cn2)CC1c1nn2c(C3CCOCC3)ncc2c(=O)[nH]1 (single isomer, unassigned; (+)): 107
- CC1CN(Cc2cccc(Cl)c2Cl)CC1c1nn2c(C3CCOCC3)ncc2c(=O)[nH]1 (single isomer, unassigned; (+)): 195
- CC1CN(Cc2cccs2)CC1c1nn2c(C3CCOCC3)ncc2c(=O)[nH]1 (single isomer, unassigned; (+)): 91
- CC1CN(Cc2c(F)ccc(F)c2Cl)CC1c1nn2c(C3CCOCC3)ncc2c(=O)[nH]1 (single isomer, unassigned; (+)): 118

Challenge: State the recorded PDE1A selectivity (versus PDE9A2) for this entry: Cc1cc(CN2CC(C)C(c3nn4c(C5CCOCC5)ncc4c(=O)[nH]3)C2)ccc1Cl (single isomer, unassigned; (+))
Response given: 466

Challenge: One more molecule: CC1CN(Cc2c(F)cccc2Cl)CC1c1nn2c(C3CCOCC3)ncc2c(=O)[nH]1 (single isomer, unassigned; (+))
Response given: 196

Challenge: One more molecule: Cc1ncccc1CN1CC(C)C(c2nn3c(C4CCOCC4)ncc3c(=O)[nH]2)C1 (single isomer, unassigned; (+))
Response given: 139
